The measurements presented in this section are drawn from patent US20240400677A1.

target: T1, extracellular binding domain of human SIRPγ (plate-coated) (human, UniProt Q9P1W8 29-360); assay: competition ELISA, coated SIRPγ ECD, antibody 1 h then 10 µg/mL biotinylated CD47-Fc (blocked ligand), streptavidin-HRP
T1 construct: also called hSIRPγ
T1 sequence (Q9P1W8 29-360 limits assumed): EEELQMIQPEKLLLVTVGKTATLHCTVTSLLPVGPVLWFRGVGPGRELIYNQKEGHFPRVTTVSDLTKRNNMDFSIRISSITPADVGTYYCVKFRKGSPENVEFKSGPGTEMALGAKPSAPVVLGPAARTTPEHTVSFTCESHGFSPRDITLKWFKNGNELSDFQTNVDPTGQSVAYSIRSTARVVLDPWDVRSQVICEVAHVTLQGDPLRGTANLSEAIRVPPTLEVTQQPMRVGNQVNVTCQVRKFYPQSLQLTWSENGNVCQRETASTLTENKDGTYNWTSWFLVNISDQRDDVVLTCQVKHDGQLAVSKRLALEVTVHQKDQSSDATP
propertyLabel: IC50 (read off the curve)

{"columns": ["binder", "valueObserved"],
 "data": [
  ["Antibody 84 (antibody, V domains shown) VH: QVQLVQSGAEVKKPGASVKVSCKASGYTFTSYYMHWVRQAPGQGLEWMGWINPNSGNAGFAQKFQGRVTMTRDTSTSTVYMELSSLRSEDTAVYYCARGPVYSYGPFDYWGQGTLVTVSS VL: DIQMTQSPSSLSASVGDRVTITCRASQGISTYLAWYQQKPGKAPKLLIYAASTLQSGVPSRFSGSGSGTDFTLTISSLQPEDFATYYCQQSHSAPITFGQGTKVEIK", "~0.2 µg/mL"],
  ["Antibody 54 (antibody, V domains shown) VH: QVQLVQSGAEVKKPGASVKVSCKASGYSFSDYYMHWVRQAPGQGLEWMGWMSPNSGNTGYAQKFQGRVTMTRDTSTSTVYMELSSLRSEDTAVYYCARQREEYGHYYYGMDVWGQGTMVTVSS VL: EIVMTQSPATLSVSPGERATLSCRASQSLGSTYLAWYQQKPGQAPRLLIYGASTRATGIPARFSGSGSGTEFTLTISSLQSEDFAVYYCQQYYSSPPTFGQGTKVEIK", "~0.1 µg/mL"]
]}

We now examine a further binder.
Input line: Quick check: IC50 (read off the curve) of Antibody 95 (antibody, V domains shown) VH: QVQLVQSGAEVKKPGASVKVSCKASGYTFTSYYMHWVRQAPGQGLEWMGWMNPNSGNTGYAQKFQGRVTMTRDTSTSTVYMELSSLRSEDTAVYYCARDQMYSSYGMDVWGQGTTVTVSS VL: DIQMTQSPSSLSASVGDRVTITCRASESITNWLAWYQQKPGKAPKLLIYKASSLESGVPSRFSGSGSGTDFTLTISSLQPEDFATYYCQQSYGTPYTFGQGTKVEIK ?
Output line: ~1 µg/mL
